test system: MET Apt-AuNP (biotin-ended MET aptamer) (DNA, aptamer) AGGAATTCAGATCTCCCTGCAGAAAACAGACCACCCACTTTGAATCCACTTGACTCGAGGAGCTCAGGATCCCG; experiment: competitive lateral flow assay
value type: binding

                           structure_smiles  obs_value
0  COc1ccc2c3c1O[C@H]1[C@@H](O)C=C[C@H]4[C@@H](C2)N(C)CC[C@@]341         no
1                      CN[C@@H](C)Cc1ccccc1        yes
2  CCCCCc1cc(O)c2c(c1)OC(C)(C)[C@@H]1CCC(C)=C[C@@H]21         no
3  COC(=O)[C@H]1[C@@H](OC(=O)c2ccccc2)C[C@@H]2CC[C@H]1N2C         no
